Cited source: the array DNA melting data of Ke et al. (doi:10.1101/2024.01.08.574731)

MEASUREMENT NOTES: folding enthalpy; higher = less favourable; fluorescence melt of hairpins on a sequencing array, two-state fit
EXPERIMENTAL SETUP: sodium 0.088 M
READOUT LABEL: folding enthalpy (kcal/mol)

* GCTGGGCGAAAGCAGAGC (((..((....))..))) | -19.8
* GGCCTACCGAAAGGTGCC (((..(((....)))))) | -20.7
* GTGCGCGAAAGCGTGCAC ((((((....)))..))) | -17.3
* GTACCCGAAAGGGAGTAC ((((((....)))..))) | -15.3
* GCGTGTGGAAACATACGC ((((.((....)).)))) | -39
* GATCTAATACTAGATC ((((((....)))))) | -30.1
* GATCTGTTGGCAGATC ((((((....)))))) | -40.3
* GTGAGTCGAAAGACGCAC (((.(((....))).))) | -34.4
* GATCTCGGAGGAGATC ((((((....)))))) | -44.4
* GCTTGGCGAAAGCCTAGC (((.(((....))).))) | -41.9

====

This section presents sequences with their documented Tm values.
MEASUREMENT NOTES: melting temperature; fluorescence melt of hairpins on a sequencing array, two-state fit, raised by 9.35 °C to match UV melts
EXPERIMENTAL SETUP: sodium 0.088 M
READOUT LABEL: Tm (°C)

* GATCAGACTCTGATC ((((((...)))))) | 47.1
* GCGTTGGGAAACTAGCGC (((.(.(....).).))) | 47.9
* GTGTACGAAAGTATCAC ((((((....))).))) | 43.6
* GACTACGGAAACGTAGCC (.(((((....))))).) | 44.5
* GCCGAGCGAAAGCTCCGC ((.((((....)))).)) | 55.7
* GTGCAGGGAAACCTGTGC (..((((....))))..) | 44.6
* GTCTTTCCGAAAGGAGAC (((..(((....)))))) | 29.2
* GAGCCCGGAAACGAGCTC ((((.((....)).)))) | 50.2
* GATCACGCCGGTGATC ((((((....)))))) | 60.7
* GAGTAACGAAAGTTCTC (((.(((....)))))) | 37.1
* GCGAACCTCGC ((((...)))) | 46
* GCTAGTGGAAACACTGGC ((.((((....)))).)) | 51.7
* GCGTGGGCACGC ((((....)))) | 57.3
* GTTTCCGAAAGGAAAC ((((((....)))))) | 67.8
* GGATCCGAAAGGATTCC ((((((....))).))) | 51.7
* GAATGAGAAATCATTC ((((((....)))))) | 43
* GGCGTCCGAAAGGAGGCC (((.(((....))).))) | 69.1
* GCACAAGGAAACTCGTGC ((((.((....)).)))) | 43.8
* GACGCTACGAAAGTAGTC (((..(((....)))))) | 35.9
* AGGACGAAAGTCCT (((((....))))) | 68.5
* GGGGTCGAAAGACGCCCC ((((((....)))..))) | 60.2
* GGCGGAGGAAACTCCGTC (.(((((....))))).) | 61.2
* GCGTCTTCACGC ((((....)))) | 51.4
* GATCCGCTGCGGATC ((((((...)))))) | 57.5
* GATCCGACCCCGGATC ((((((....)))))) | 54.4
* GCGTGAGGAAACTTGCGC (((..((....))..))) | 48.3
* GAGAGCGAAAGCTAGCTC ((((((....)))..))) | 36.6
* GCCTGTGGAAACACAAGC ((.((((....)))).)) | 38.6
* GCCTTGCGAAAGCGCGGC (((..((....))..))) | 57.1
* GTGCGTCCGAAAGGACAC (((..(((....)))))) | 60.4
* GGAACTGCGAAAGCATCC (((..(((....)))))) | 24.6
* GCGATCGAAAGATACGC ((((((....))).))) | 50.1
* GAGGACGAAAGTCTCTC ((((((....))).))) | 46.5
* GCGAATTTCGC ((((...)))) | 48.8
* GCGATACATCGC ((((....)))) | 55.7
* GATCGTCCGGACGATC ((((((....)))))) | 62.8
* GGATCAGGAAACCGATCC (((((.(....).))))) | 46.4
* GTGTTCGAAAGAACACAC ((((((....)))..))) | 65
* GATCCCGGTTGGGATC ((((((....)))))) | 65.2
* GGTTCTTCGAAAGAAACC (((..(((....)))))) | 29.1
